Ki by entry:
target: 5-hydroxytryptamine receptor 6 (Homo sapiens); test: Displacement of [3H]-LSD from recombinant human 5-HT6 receptor expressed in HEK293 cells after 60 mins
Sequence (P50406 whole entry): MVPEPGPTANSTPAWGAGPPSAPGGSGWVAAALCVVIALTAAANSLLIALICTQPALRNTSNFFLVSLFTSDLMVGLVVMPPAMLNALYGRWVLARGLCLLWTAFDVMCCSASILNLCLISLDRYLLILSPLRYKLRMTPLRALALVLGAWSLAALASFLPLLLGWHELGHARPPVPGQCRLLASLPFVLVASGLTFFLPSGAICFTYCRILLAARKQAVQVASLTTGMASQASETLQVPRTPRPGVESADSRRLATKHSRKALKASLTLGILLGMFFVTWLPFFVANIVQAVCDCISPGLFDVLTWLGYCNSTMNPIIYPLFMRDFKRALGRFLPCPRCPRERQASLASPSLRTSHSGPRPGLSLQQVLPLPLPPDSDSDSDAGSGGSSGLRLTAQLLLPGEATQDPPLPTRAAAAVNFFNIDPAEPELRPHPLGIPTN
parameter: Ki

• COc1ccc2c(c1)c(CN1CCN(CCF)CC1)cn2S(=O)(=O)c1ccccc1Br = 348 nM
• CN1CCN(Cc2cn(S(=O)(=O)c3ccc(F)cc3)c3cccc(Cl)c23)CC1 = 31.2 nM
• CN1CCN(Cc2cn(S(=O)(=O)c3ccccc3Br)c3ccc(F)cc23)CC1 = 12 nM
• Cc1c(CN2CCN(C)CC2)c2ccccc2n1S(=O)(=O)c1ccc(F)cc1 = 55.6 nM
• CN1CCN(Cc2cn(S(=O)(=O)c3ccc(F)cc3F)c3ccccc23)CC1 = 30 nM
• CN1CCN(CCc2cn(S(=O)(=O)c3ccccc3Br)c3ccc(Br)cc23)CC1 = 398 nM
• CC(C)c1ccc(S(=O)(=O)n2cc(CN3CCN(C)CC3)c3cc(Br)ccc32)cc1 = 27.6 nM
• CN1CCN(Cc2cn(S(=O)(=O)c3ccccc3Br)c3ccc(O)cc23)CC1 = 18.7 nM
• CN1CCN(Cc2cn(S(=O)(=O)c3ccc(C#N)cc3)c3ccccc23)CC1 = 90.5 nM
• CN1CCN(Cc2cn(S(=O)(=O)c3ccc(F)cc3)c3ccc(Cl)cc23)CC1 = 17.5 nM
• CN1CCN(Cc2cn(Cc3ccccc3Br)c3ccccc23)CC1 = 312 nM
• CN1CCN(Cc2cn(S(=O)(=O)c3ccccc3Br)c3ccccc23)CC1 = 10.2 nM
• CN1CCN(Cc2cn(S(=O)(=O)c3ccc(Br)cc3)c3ccc(F)cc23)CC1 = 9.2 nM
• CN1CCN(Cc2cn(S(=O)(=O)c3ccc(Br)cc3)c3ccc(OCC(F)(F)F)cc23)CC1 = 96.3 nM
• CN1CCN(Cc2cn(S(=O)(=O)c3c(F)cccc3F)c3ccccc23)CC1 = 64 nM
• CN1CCN(Cc2cn(S(=O)(=O)c3ccc(Cl)cc3Cl)c3ccccc23)CC1 = 28.2 nM
• CC(C)c1ccc(S(=O)(=O)n2cc(CN3CCN(C)CC3)c3cc(O)ccc32)cc1 = 50 nM
• COc1ccc2c(c1)c(CN1CCN(C)CC1)nn2S(=O)(=O)c1ccccc1Br = 348 nM
• CN1CCN(Cc2cn(S(=O)(=O)c3c(Cl)cccc3Cl)c3ccccc23)CC1 = 100 nM
• CN1CCN(Cc2cn(S(=O)(=O)c3ccc(F)c(F)c3)c3ccccc23)CC1 = 119 nM
• Cc1ccc(S(=O)(=O)n2cc(CN3CCN(C)CC3)c3ccccc32)cc1 = 9.6 nM
• COc1cccc2c1c(CN1CCN(C)CC1)cn2S(=O)(=O)c1ccc(C(C)C)cc1.Cl.Cl = 11.6 nM
• O=S(=O)(c1ccccc1)n1cc(CN2CCNCC2)c2ccccc21 = 7.5 nM
• COc1ccc2c(c1)c(CN1CCN(C)CC1)c(Cl)n2S(=O)(=O)c1ccc(C(C)C)cc1 = 29.6 nM
• CN1CCN(Cc2cn(S(=O)(=O)c3cccc(Br)c3)c3ccccc23)CC1 = 19 nM
• CN1CCN(Cc2cn(C(=O)c3ccccc3Br)c3ccc(F)cc23)CC1 = 326 nM
• CCN1CCN(Cc2cn(S(=O)(=O)c3ccccc3Br)c3ccc(OC)cc23)CC1 = 6.7 nM
• CN1CCN(CCc2cn(S(=O)(=O)c3cccc(Br)c3)c3ccc(Br)cc23)CC1 = 289 nM
• COc1ccc(OC)c(S(=O)(=O)n2cc(CN3CCN(C)CC3)c3ccccc32)c1 = 91 nM
• O=S(=O)(c1ccccc1Br)n1cc(CN2CCNCC2)c2ncccc21 = 95 nM
• COc1cccc2c1c(CN1CCN(C)CC1)cn2S(=O)(=O)c1ccc(F)cc1 = 18.4 nM
• COc1ccc2c(c1)c(CN1CCNCC1)cn2S(=O)(=O)c1ccc(F)cc1 = 6.9 nM
• O=S(=O)(c1ccccc1Br)n1cc(CN2CCN(Cc3ccccc3)CC2)c2ccccc21 = 133 nM
• CN1CCN(Cc2cn(S(=O)(=O)c3ccc(F)cc3Cl)c3ccccc23)CC1 = 29 nM
• CN1CCN(Cc2cn(S(=O)(=O)c3ccc(F)cc3)c3ccc(Br)cc23)CC1 = 17 nM
• CN1CCN(Cc2cn(S(=O)(=O)c3ccc(F)cc3)c3ccc(O)cc23)CC1 = 34.9 nM
• CC(C)c1ccc(S(=O)(=O)n2cc(CN3CCN(C)CC3)c3ccccc32)cc1 = 6 nM
• CC(C)c1ccc(S(=O)(=O)n2cc(CN3CCN(C)CC3)c3c(Cl)cccc32)cc1 = 9.2 nM
• CN1CCN(Cc2cn(S(=O)(=O)c3ccc(OC(F)(F)F)cc3)c3ccccc23)CC1 = 150 nM
• CC(C)Oc1ccc2c(c1)c(CN1CCN(C)CC1)cn2S(=O)(=O)c1ccccc1Br = 36.3 nM
